measurement_description: protein stability index of a GFP-peptide fusion (GPS, HEK-293T) (PSI 1-6); higher = more stable;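 further: 24-mer peptide tiles fused after GFP, lentivirally expressed, FACS-sorted into six equal bins by GFP/DsRed ratio, decoded by Illumina sequencing, PSI is the read-weighted mean bin number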
measurement_setup: treatment: MLN4924 1 uM, 8 h; c terminus: a fixed tail appended
quantity_kind: protein stability index
Would you mind answering with just the numeric figure?

Some solved entries appear below for comparison.
> print(dat)
                     sequence.entry  recorded.result
1   GVLHKHQRALHKYSLMKRQMMSAT [SNX8]             2.58
2  TQIPADEDTQTDADSSAQAAAQAP [TAF7L]             5.51

Entry KDFANTIPGHGGIMDRFDCQYLMA [CDS2] has what protein stability index?
2.8

Could you tell me which protein stability index is on file for RAPRSPGQVTPRGLRLRLPRRESL [C6orf223] ?
4.41

What value of protein stability index has been reported for the following sequence? TEDFWRMLWEHNSTIVVMLTKLRE [PTPRD]
2.23

So what does the record say about protein stability index for KPLYVAFSFMYILVGLTVIGAFLN [KCNK9] ?
2.97

# protein stability index lookup, item LSEEEEDEEEEEEEEEEGRFYYSE [KCNA4]
5.19

Tell me the measured protein stability index of QLTNTSGTVIGVTSCIVIILIIIS [NETO1] , please.
2.43

# lookup: protein stability index of MERPDKAALNALQPPEFRNESSLA [VMA21]
4.84

Record request: protein stability index value, item GGSGPAGLRASTSDGILRGNGTGY [RHOBTB2]
4.24

What does the data say about its protein stability index? Entry: LDQALKEGGKLPPPPPPSYDPDYI [ZC2HC1A]
4.89

Requested field: protein stability index. Item: RLSKEWEDSKRWSKMDQLAKELTA [CHGA]
3.41

Would you kindly share the measured protein stability index for SYFSGQGSDTGASLKLASSELERL [JUNB] ?
4.43
